Tested on: recombinant guanylate cyclase reporter cell line
Procedure Details: Effect on a recombinant guanylate cyclase reporter cell line
Assay type: cell-based
Run Conditions: in some cases mean values from individual determinations, read-out: MEC (minimum effective concentration)
Counter-ions that a name gives are not always drawn.
Assignment: determine reported minimal effective concentration for the given compounds.
Numeric answer only, unit µM assumed.

Please give measured minimal effective concentration of the following entry: `CC1(C)CC(NC(=O)c2ccnc3c(OCc4c(F)cccc4F)cccc23)CC(C)(C)N1`
10

Please give measured minimal effective concentration of the following entry: `O=C(NCc1ccccc1-c1cccnc1)c1ccnc2c(OCc3c(F)cccc3F)cccc12`
10

Please give measured minimal effective concentration of the following entry: O=C(NC1CCOc2ncccc21)c1ccnc2c(OCc3c(F)cccc3F)cccc12 (stereo not shown)
1

Please give measured minimal effective concentration of the following entry: Cc1cc(OCc2c(F)cccc2F)c2nccc(C(=O)NCC(C)(N)CCC(F)(F)F)c2c1 (single isomer, unassigned; enantiomer b)
0.65

Please give measured minimal effective concentration of the following entry: COc1ccc(CC(C)(N)CNC(=O)c2ccnc3c(OCc4c(F)cccc4F)cccc23)cc1 (racemic) [Example 35, trifluoroacetate]
3

Please give measured minimal effective concentration of the following entry: `CCCC[C@H](C)NC(=O)c1ccnc2c(OCc3c(F)cccc3F)cccc12`
1

Please give measured minimal effective concentration of the following entry: `O=C(NCCC1(O)CCCC1)c1ccnc2c(OCc3c(F)cccc3F)cccc12`
3
